# Lookup of reported Potency keyed by entry
test system: Zika virus NS2B-NS3 protease (linked construct); assay: 384 well plate NINDS Rhodamine confirmatory qHTS for Zika virus inhibitors (AID 1347164); details: rhodamine-110 peptide substrate fluorescence;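 also: fluorescence from protease cleavage of Ac-LKRR-rhodamine 110 substrate; potency is read from the fitted curve at half-maximal effect; nearly all actives have a fitted effect of over 65% in size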
Results filed as inconclusive are left out. Activity calls are given as the source filed them. Calls follow the shape of the dose curve; as a rule, active = well fitted inhibition curve with a large enough effect; inconclusive = small, poorly fitted or top-dose-only effect; inactive = no such curve, though single readings can be large or run the other way.
Observable: Potency

1. CC1(C)C(\C=C/C=C\C=C/C=C2/N(CCCCS(=O)(=O)O)c3ccc4ccccc4c3C2(C)C)=[N+](CCCCS(=O)(=O)[O-])c2ccc3ccccc3c21
4.47 µM (active)
2. O=C(O)Cc1cc(I)c(Oc2ccc(O)c(I)c2)c(I)c1
3.16 µM (active)
3. Cc1cc(-c2ccc(N=Nc3ccc4c(S(=O)(=O)O)cc(S(=O)(=O)O)c(N)c4c3O)c(C)c2)ccc1N=Nc1ccc2c(S(=O)(=O)O)cc(S(=O)(=O)O)c(N)c2c1O
8.91 µM (active)
4. Cc1cc(-c2ccc(N=Nc3c(S(=O)(=O)O)cc4cc(S(=O)(=O)O)cc(N)c4c3O)c(C)c2)ccc1N=Nc1c(S(=O)(=O)O)cc2cc(S(=O)(=O)O)cc(N)c2c1O
7.94 µM (active)
